# ASSAY NAME: Quantification of solubility by visual inspection for undissolved material
# Assay type: physicochemical
# STUDY CONDITIONS: solubility in ChCl-urea DES relative to aqueous solution
// reported Enhancement factor for each item listed
Reply with just the number.

{"MOLECULE": "O=C1N2CN3C(=O)N4CN5C(=O)N6CN7C(=O)N8CN9C(=O)N%10CN%11C(=O)N%12CN%13C(=O)N%14CN1C1C2N2CN%15C(=O)N(CN%16C(=O)N(CN%17C(=O)N(CN%18C(=O)N(CN%19C(=O)N(CN%20C(=O)N(CN1C2=O)C%14C%13%20)C%12C%11%19)C%10C9%18)C8C7%17)C6C5%16)C4C3%15 (stereo not shown) [CB[7]]", "Enhancement factor": 3.9}

Alright, here's another molecule for you.
# Enhancement factor of O=C1N2CN3C(=O)N4CN5C(=O)N6CN7C(=O)N8CN9C(=O)N%10CN%11C(=O)N%12CN1C1C2N2CN%13C(=O)N(CN%14C(=O)N(CN%15C(=O)N(CN%16C(=O)N(CN%17C(=O)N(CN1C2=O)C%12C%11%17)C%10C9%16)C8C7%15)C6C5%14)C4C3%13 (stereo not shown) [CB[6]] = 10

Measured values drawn from patent US11530317B2 for this set.
